subject.of.test: human H3 receptor (Homo sapiens, UniProt Q9Y5N1)
Construct: expressed in transfected cells
Sequence (Q9Y5N1 whole entry): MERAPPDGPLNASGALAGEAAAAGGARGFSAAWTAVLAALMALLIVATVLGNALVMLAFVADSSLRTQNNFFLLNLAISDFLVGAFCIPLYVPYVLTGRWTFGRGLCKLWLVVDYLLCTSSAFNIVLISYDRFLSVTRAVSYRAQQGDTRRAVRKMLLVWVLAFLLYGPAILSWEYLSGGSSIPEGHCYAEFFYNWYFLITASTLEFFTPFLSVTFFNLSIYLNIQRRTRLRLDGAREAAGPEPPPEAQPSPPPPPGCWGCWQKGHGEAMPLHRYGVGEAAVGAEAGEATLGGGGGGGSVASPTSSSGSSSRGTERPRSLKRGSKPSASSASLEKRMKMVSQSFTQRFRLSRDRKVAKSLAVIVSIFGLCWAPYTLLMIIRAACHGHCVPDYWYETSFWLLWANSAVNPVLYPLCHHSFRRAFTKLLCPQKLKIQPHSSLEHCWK
method.notes: Human H3 radioligand binding ([3H]-N-alpha-methylhistamine, CHO cell membranes, SPA)
conditions.used: Table A, binding constant as letter class
pKi: −log10 of the molar value.
Measured pKi of individual entries

| molecule | pKi |
| --- | --- |
| CC1CCC(C)N1CCCOc1ccc(-c2nn(C(C)C)c(=O)c3ccsc23)cc1 (stereo not drawn) [Example 23] | 7.00 to 10.00 |
| CC(C)n1nc(-c2ccc(OCCCN3CCCCC3)cc2)c2sccc2c1=O [Example 24] | 7.00 to 10.00 |
| C[C@@H]1CCCN1CCCOc1ccc(-c2nn(C)c(=O)c3ccccc23)cc1 [Example 49] | 7.00 to 10.00 |
| CCN(CC)CCCOc1ccc(-c2nn(C(C)C)c(=O)c3ccsc23)cc1 [Example 28] | 7.00 to 10.00 |
| CC(C)n1nc(-c2ccc(OCCCN3CCCCC3)cc2)ccc1=O [Example 3] | 7.00 to 10.00 |
| C[C@@H]1CCCN1CCCOc1ccc2c(c1)CCc1cc(=O)n(C)nc1-2 [Example 75] | 7.00 to 10.00 |
| C[C@@H]1CCCN1CCCOc1ccc(-c2ccc(=O)n(-c3cc(Cl)cc(Cl)c3)n2)cc1 [Example 9] | 7.00 to 10.00 |
| C[C@@H]1CCCN1CCCOc1ccc(C2=NN(Cc3ccc(Cl)cc3Cl)C(=O)CC2)cc1 [Example 8] | 7.00 to 10.00 |
| C[C@@H]1CCCN1CCCOc1ccc(-c2ccc(=O)n(-c3ccccc3)n2)cc1 [Example 20] | 7.00 to 10.00 |
| Cn1nc(-c2ccc(OCCCN3CCCCC3)cc2)c2c(c1=O)CCC2 [Example 57] | 7.00 to 10.00 |
| C[C@@H]1CCCN1CCCOc1ccc(-c2cc(Cc3ccccc3)c(=O)n(C)n2)cc1 [Example 45] | 7.00 to 10.00 |
| CCn1nc(-c2ccc(OCCCN3CCC[C@H]3C)cc2)ccc1=O [Example 6] | 7.00 to 10.00 |
| C[C@@H]1CCCN1CCCOc1ccc(-c2nn(Cc3ccc(Cl)cc3)c(=O)c3ccsc23)cc1 [Example 38] | 7.00 to 10.00 |
| C[C@@H]1CCCN1CCCOc1ccc(-c2nn(C)c(=O)c3c2CCCC3)cc1 [Example 60] | 7.00 to 10.00 |
| CC(C)n1nc(-c2ccc(OCCCN3CCC(N4CCCC4)CC3)cc2)c2sccc2c1=O [Example 30] | 7.00 to 10.00 |
| C[C@@H]1CCCN1CCCOc1ccc(-c2nn(Cc3ccc(Cl)cc3)c(=O)c3ccccc23)cc1 [Example 54] | 7.00 to 10.00 |
| C[C@@H]1CCCN1CCCOc1ccc(-n2ncccc2=O)cc1 [Example 21] | 7.00 to 10.00 |
| Cn1nc(-c2ccc(OCC3CCNCC3)cc2)c2ccccc2c1=O [Example 63] | < 6.00 |
| CC(C)n1nc(-c2ccc(OCCCN3CCC[C@H]3C)cc2)ccc1=O [Example 5] | 7.00 to 10.00 |
| C[C@@H]1CCCN1CCCOc1ccc(-c2ccc(=O)n(Cc3ccccc3)n2)cc1 [Example 18] | 7.00 to 10.00 |
| CC(C)n1nc(-c2ccc(OCCCN3CCC[C@H]3C)cc2)c2sccc2c1=O [Example 22] | 7.00 to 10.00 |
| CC(C)n1nc(-c2ccc(OCCCN3CCCC(C)(C)C3)cc2)c2sccc2c1=O [Example 25] | 6.30 to 7.00 |
| C[C@@H]1CCCN1CCCOc1ccc(-c2nn(C)c(=O)c3c2CCC3)cc1 [Example 56] | 7.00 to 10.00 |
| C[C@@H]1CCCN1CCCOc1ccc(-c2ccc(=O)n(-c3ccccc3)n2)cc1F [Example 81] | 7.00 to 10.00 |
| CN1N=C(c2ccc(OCCCN3CCCCC3)cc2)C2CCCC2C1=O (stereo not drawn) [Example 59] | 7.00 to 10.00 |
| Cn1nc(-c2ccc(OCCCN3CCCC3)cc2)c2ccccc2c1=O [Example 52] | 7.00 to 10.00 |
| CC(C)N1CCC(COc2ccc(-c3ccc(=O)n(C)n3)cc2)CC1 [Example 68] | 7.00 to 10.00 |

---

subject.of.test: rat histamine H3 receptor (Rattus norvegicus)
Construct: encoding the entire 445-amino-acid rat histamine H3 receptor; expressed in transfected cells
Sequence (Q9QYN8 whole entry): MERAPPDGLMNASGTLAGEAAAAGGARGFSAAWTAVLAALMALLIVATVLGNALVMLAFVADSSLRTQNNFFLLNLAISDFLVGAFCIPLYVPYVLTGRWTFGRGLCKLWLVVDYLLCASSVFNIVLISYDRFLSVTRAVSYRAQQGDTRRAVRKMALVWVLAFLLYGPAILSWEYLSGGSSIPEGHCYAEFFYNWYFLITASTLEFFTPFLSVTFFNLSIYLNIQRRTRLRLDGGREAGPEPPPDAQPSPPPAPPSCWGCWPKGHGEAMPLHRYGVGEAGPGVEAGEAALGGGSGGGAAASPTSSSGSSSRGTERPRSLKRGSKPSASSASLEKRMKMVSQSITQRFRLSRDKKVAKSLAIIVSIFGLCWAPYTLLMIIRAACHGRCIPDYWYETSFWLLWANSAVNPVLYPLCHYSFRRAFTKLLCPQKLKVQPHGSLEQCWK
method.notes: Rat H3 radioligand binding ([3H]-N-alpha-methylhistamine, CHO-A3 cell membranes, SPA)
conditions.used: Table B, binding constant as letter class; read-out: rat H3 Ki
pKi: −log10 of the molar value.
List of pKi values.

| molecule | pKi |
| --- | --- |
| C[C@@H]1CCCN1CCCOc1ccc2c(c1)CCc1n[nH]c(=O)cc1-2 [Example 218] | 7.00 to 10.00 |
| COCn1ncc(-c2ccc(OCCCN3CCC[C@H]3C)cc2)c(OC)c1=O [Example 235] | 7.00 to 10.00 |
| C[C@@H]1CCCN1CCCOc1ccc(C2=NNC(=O)C(c3ccccn3)C2)cc1 (some centres unmarked) [Example 216] | 7.00 to 10.00 |
| O=C1CCC(c2ccc(OC3CCN(C4CCC4)CC3)c(F)c2)=NN1 [Example 151] | 7.00 to 10.00 |
| C[C@@H]1CCCN1CCCOc1c(F)cc(-c2ccc(=O)[nH]n2)cc1F [Example 184] | 7.00 to 10.00 |
| Cc1cccnc1-n1ncc(-c2ccc(OCCCN3CCC[C@H]3C)cc2)cc1=O [Example 99] | 7.00 to 10.00 |
| O=C1CCC(c2ccc(OCCCN3CCCCC3)c(F)c2)=NN1 [Example 181] | 6.30 to 7.00 |
| O=C1CCC(c2ccc(OC3CCN(C4CCC4)CC3)cc2)=NN1 [Example 150] | 7.00 to 10.00 |
| Cc1cc(OCCCN2CCC[C@H]2C)ccc1-c1cn[nH]c(=O)c1 [Example 231] | 7.00 to 10.00 |
| CN(CCCOc1ccc(-c2ccc(=O)[nH]n2)cc1)C1CCCC1 [Example 242] | 6.30 to 7.00 |
| Cc1onc2c(=O)[nH]nc(-c3ccc(OCCCN4CCC[C@H]4C)cc3)c12 [Example 208] | 7.00 to 10.00 |
| O=C1NN=C(c2ccc(OC3CCN(C4CCC4)CC3)cc2)C2CC12 (centres unmarked) [Example 244] | 7.00 to 10.00 |
| COc1cc(OCCCN2CCC[C@H]2C)ccc1-c1ccc(=O)[nH]n1 [Example 213] | 6.30 to 7.00 |
| O=C1CCC(c2ccc(OC3CCN(C4CCC4)CC3)nc2)=NN1C1CCC1 [Example 177] | 7.00 to 10.00 |
| CC1(C)CC(c2ccc(OC3CCN(C4CCC4)CC3)nc2)=NNC1=O [Example 148] | 7.00 to 10.00 |
| C[C@@H]1CCCN1CCCOc1ccc(C2=NN(c3ccccn3)C(=O)CC2)cc1 [Example 183] | 7.00 to 10.00 |
| Cn1nc(-c2cccc(OCCCN3CCCCC3)c2)c2c(c1=O)CCC2 [Example 126] | 6.00 to 6.30 |
| Cn1nc(-c2ccc(OC3CCN(C4CCC4)CC3)nc2)ccc1=O [Example 144] | 7.00 to 10.00 |
| O=C1CCC(c2ccc(OC3CCN(C4CCC4)CC3)cc2)=NN1c1ccccn1 [Example 158] | 7.00 to 10.00 |
| Cc1cc(=O)[nH]nc1-c1ccc(OCCCN2CCC[C@H]2C)cc1 [Example 210] | 7.00 to 10.00 |
| O=c1cc(-c2ccc(OC3CCN(C4CCC4)CC3)cc2)cn[nH]1 [Example 106] | 7.00 to 10.00 |
| C[C@@H]1CCCN1CCCOc1ccc(-c2ccc(=O)n(C)n2)cc1Cl [Example 85] | 7.00 to 10.00 |
| CC(C)N1CCC(Oc2ccc(-c3ccc(=O)[nH]n3)cn2)CC1 [Example 142] | 6.30 to 7.00 |
| C[C@@H]1CCCN1CCCOc1ccc(-c2cc(-c3ccccn3)c(=O)[nH]n2)cc1 [Example 217] | 7.00 to 10.00 |
| O=c1ccc(-c2ccc(O[C@@H]3CCN(C4CCCCC4)C3)cc2)n[nH]1 [Example 160] | 6.30 to 7.00 |
| Cn1nc(-c2cccc(OCCCN3CCC[C@H]3CO)c2)c2c(c1=O)CCC2 [Example 127] | 6.00 to 6.30 |
| O=c1ccc(-c2ccccc2)nn1-c1ccc(OC2CCN(C3CCC3)CC2)nc1 [Example 203] | 7.00 to 10.00 |
| COc1cc(-c2ccc(=O)[nH]n2)ccc1OCCCN1CCC[C@H]1C [Example 136] | 6.30 to 7.00 |
| C[C@@H]1CCCN1CCCOc1ccc(-n2nc(C3CC3)ccc2=O)cc1 [Example 262] | 6.30 to 7.00 |
| C[C@@H]1CCCN1CCCOc1ccc(-n2ncc3ccccc3c2=O)cc1 [Example 202] | 7.00 to 10.00 |
| O=c1ccc(-c2cc(F)c(OC3CCN(C4CCC4)CC3)c(F)c2)n[nH]1 [Example 188] | 7.00 to 10.00 |
| O=c1ccc(-c2ccc(OCCCN3CCCCC3)cc2)nn1CC(F)(F)F [Example 171] | 7.00 to 10.00 |
| Cc1cccc(-n2ncc(-c3ccc(OCCCN4CCC[C@H]4C)cc3)cc2=O)n1 [Example 98] | 7.00 to 10.00 |
| C[C@@H](COc1ccc(-c2ccc(=O)n(C)n2)cc1)CN1CCC[C@H]1C [Example 82] | 7.00 to 10.00 |
| C[C@@H]1CCCN1C[C@@H](O)COc1ccc(-c2ccc(=O)[nH]n2)cc1 [Example 258] | 7.00 to 10.00 |
